Assay: protein stability index of a GFP-peptide fusion (yeast GPS) (PSI 1-4); higher = more stable; sorted into four equal gates, so the index is relative within each strain
Settings: pdr5∆
Assign class by protein stability index: not lower than 3 means true (1); lower than 3 means false (0).

Worked set:
INHKINNKITQLIAKNV [SIR3] | false (0)
KKGVRVTLDITTLTIMR [RPT4] | false (0)
KELQQLQKQILTVENKL [SMC1] | false (0)
SNSNNNGNKDSSFNFNK [SWI1] | true (1)
ATKEGVVLGVEKRATSP [PUP2] | true (1)

Query: protein stability index >= 3 for VLKKPNRAMEYDALLSI [RET1] ?
Reply: false (0)

Query: Could you tell me if the measured protein stability index of YTSIVQCCEFMTMLTPN [YML103C/NUP188] reaches 3 or more?
Reply: false (0)

Query: Threshold query (protein stability index >= 3) on LAKSGSTEETTANTGTI [TAF14]
Reply: false (0)

Query: Entry SHLVVPYCPIASITGTG [YMR129W/POM152] : is its protein stability index no less than 3?
Reply: false (0)

Query: Does AVFIVPKILIREHERVI [SWP82] have a reported protein stability index of at least 3?
Reply: false (0)

Query: protein stability index >= 3 for IRKGPAPLNLEIPAYEF [RIP1] ?
Reply: false (0)
